meta.source: patent US8759519B2

test: Aqueous solubility in solvents with different pH; type: physicochemical; conditions: aqueous buffer, Buffer pH 6 (citric acid/NaOH) (pH 6.0), 20° C., read-out: Solubility (mg/ml solution)
Structures can show the parent of a compound that is named as a salt.
Property label: solubility thermodynamic at 24 h (mg/mL)
Answers are plain numbers, in mg/mL.

I have this compound here, Cn1cc(CNCC2CCN(c3ncc(C(=O)NO)cn3)CC2)c2ccccc21 [Form I, hydrochloride] , and I need its recorded solubility thermodynamic at 24 h.
1.5

====

assay: Aqueous solubility in solvents with different pH; format: physicochemical; conditions: aqueous buffer, Buffer pH 8 (boric acid/HCl/NaOH) (pH 7.8), 20° C., read-out: Solubility (mg/ml solution)
Structures can show the parent of a compound that is named as a salt.
Property label: solubility thermodynamic at 24 h (mg/mL)
Numbers only, in mg/mL.

What value of solubility thermodynamic at 24 h has been reported for the following compound? Cn1cc(CNCC2CCN(c3ncc(C(=O)NO)cn3)CC2)c2ccccc21 [Form I, hydrochloride]
1.3

====

assay: Crystallographic stability after storage in open conditions (TGA, DSC, XRPD, IR); format: physicochemical; settings: six weeks open, RT/75% RH; hydrochloride
Where a name gives a salt, the structure may show the parent alone.
For each record, write down the corresponding TGA <100° C..
Answers are plain numbers, in %.

1. Cn1cc(CNCC2CCN(c3ncc(C(=O)NO)cn3)CC2)c2ccccc21 [Form II, hydrochloride] :: 4.9

# input for lookup
What does the record list as TGA <100° C. for Cn1cc(CNCC2CCN(c3ncc(C(=O)NO)cn3)CC2)c2ccccc21 [Form I, hydrochloride] ?
0.9

====

assay: Crystallographic stability after storage in open conditions (TGA, DSC, XRPD, IR); assay type: physicochemical; conditions: six weeks open, 40° C./75% RH
Where a name gives a salt, the structure may show the parent alone.
Property label: TGA <200° C. (%)
One number for each entry, in %.

// lookup TGA <200° C. for Cn1cc(CNCC2CCN(c3ncc(C(=O)NO)cn3)CC2)c2ccccc21 [Form I, hydrochloride]
0.3

====

Assay: Chemical stability after storage in open conditions (HPLC, visual inspection)
Type: physicochemical
Settings: 50° C., 8 weeks; hydrochloride
Experimental: Form I was stored in different open conditions for periods of 1, 4 and 8 weeks. These conditions are 40° C./75% RH, 50° C., RT/<5% RH, RT/56% RH, RT/75% RH and 0.3 da ICH light. The compounds were analyzed after storage by HPLC and by visual inspection. Form II was stored in different open conditions for periods of 1, 4 and 8 weeks. These conditions were 40° C./75% RH, 50° C., RT/<5% RH, RT/56% RH, RT/75% RH and 0.3 da ICH light.
Counter-ions that a name gives are not always drawn.
Property label: HPLC Sum of impurities (%)
Give bare numbers, in %.

1. Cn1cc(CNCC2CCN(c3ncc(C(=O)NO)cn3)CC2)c2ccccc21 [Form II, hydrochloride] :: 4.9

What does the data say about its HPLC Sum of impurities? Entry: Cn1cc(CNCC2CCN(c3ncc(C(=O)NO)cn3)CC2)c2ccccc21 [Form I, hydrochloride]
3.16

====

test: Crystallographic stability after storage in open conditions (TGA, DSC, XRPD, IR); format: physicochemical; details: six weeks open, RT/<5% RH
Where a name gives a salt, the structure may show the parent alone.
Property label: TGA <200° C. (%)
One number for each entry, in %.

Quick one: TGA <200° C. of Cn1cc(CNCC2CCN(c3ncc(C(=O)NO)cn3)CC2)c2ccccc21 [Form I, hydrochloride] ?
0.5

====

Assay: Crystallographic stability after storage in open conditions (TGA, DSC, XRPD, IR)
Assay type: physicochemical
Conditions: 0 days (reference)
Experimental: The stability of the crystal structure of Form I was studied after storage of the compound in open conditions for a period of six weeks at room temperature (RT) under <5%, 56% and 75% relative humidity (RH), 50° C. and 40° C./75% RH. The samples are analyzed with thermogravimetry (TGA), differential scanning calorimetry (DSC), X-ray powder diffraction (XRPD) and infrared spectroscopy (IR). […]
Structures can show the parent of a compound that is named as a salt.
Property label: TGA <170° C. (%)
Numbers only, in %.

Fill in the blank: the reported TGA <170° C. of Cn1cc(CNCC2CCN(c3ncc(C(=O)NO)cn3)CC2)c2ccccc21 [Form II, hydrochloride] is ____.
0.4

====

assay: Crystallographic stability after storage in open conditions (TGA, DSC, XRPD, IR); assay type: physicochemical; conditions: 0 days (reference)
Counter-ions that a name gives are not always drawn.
Property label: TGA <200° C.
Could you give the number and then its unit, please?

Value lookup for TGA <200° C.; key = Cn1cc(CNCC2CCN(c3ncc(C(=O)NO)cn3)CC2)c2ccccc21 [Form I, hydrochloride]
0.9%

====

test: Aqueous solubility in solvents with different pH; assay type: physicochemical; details: aqueous buffer, Buffer pH 10 (boric acid/KCl/NaOH) (pH 9.8), 20° C., read-out: Solubility (mg/ml solution)
Counter-ions that a name gives are not always drawn.
Property label: solubility thermodynamic at 24 h
Just so you know, I need the unit written after the number.

solubility thermodynamic at 24 h for Cn1cc(CNCC2CCN(c3ncc(C(=O)NO)cn3)CC2)c2ccccc21 [Form I, hydrochloride] ?
1.3 mg/mL
